Quick reference for MRT last among some compounds
- Assay comment: In vivo pharmacokinetic evaluation in mice
- Assay setup: mouse, plasma; ICR mice, iv, dose 0.5 mg/kg; read-out: MRT(0-24)
Form entry: value (h) — number only.

Sample `Cc1cc(-n2nc3c(c2-n2ccn(-c4ccc5c(c4)C4(CC4)C(=O)N5C4CC4)c2=O)[C@H](C)N(C(=O)c2cc4cc([C@H]5CCOC(C)(C)C5)ccc4n2[C@@]2(c4noc(=O)[nH]4)C[C@@H]2C)CC3)cc(C)c1F` ; MRT last observed: 6.13

Form: compound = `C[C@H]1c2c(nn(-c3ccc(F)c(C4CC4)c3)c2-n2ccn(-c3ccc4c(c3)N(C)C(=O)C43CC3)c2=O)CCN1C(=O)c1cc2cc([C@H]3CCOC(C)(C)C3)ccc2n1[C@@]1(c2noc(=O)[nH]2)C[C@@H]1C` ; MRT last = 5.48

Quick note, MRT last for `Cc1cc(-n2nc3c(c2-n2ccn(-c4ccc5c(c4F)N(C)C(=O)C54CC4)c2=O)[C@H](C)N(C(=O)c2cc4cc([C@H]5CCOC(C)(C)C5)ccc4n2[C@@]2(c4noc(=O)[nH]4)C[C@@H]2C)CC3)cc(C)c1F` landed at 6.78

====

- Assay comment: In vivo pharmacokinetic evaluation in mice
- Assay setup: mouse; ICR mice, iv, dose 0.5 mg/kg, plasma
Reported endpoint: AUC(0-inf) (ng·h/mL)
Numeric only. Scale: ng·h/mL

Answered examples (2):
Molecule: Cc1cc(-n2nc3c(c2-n2ccn(-c4ccc5c(c4)C4(CC4)C(=O)N5C4CC4)c2=O)[C@H](C)N(C(=O)c2cc4cc([C@H]5CCOC(C)(C)C5)ccc4n2[C@@]2(c4noc(=O)[nH]4)C[C@@H]2C)CC3)cc(C)c1F
AUC(0-inf) / ng·h/mL: 2450

Molecule: [2H]C([2H])([2H])N1C(=O)C2(CC2)c2cc(-n3ccn(-c4c5c(nn4-c4cc(C)c(F)c(C)c4)CCN(C(=O)c4cc6cc([C@H]7CCOC(C)(C)C7)ccc6n4[C@@]4(c6noc(=O)[nH]6)C[C@@H]4C)[C@H]5C)c3=O)ccc21
AUC(0-inf) / ng·h/mL: 1850

Attention now turns to another entry.
Record Cc1cc(-n2nc3c(c2-n2ccn(-c4ccc5c(c4)N(C)C(=O)C54CC4)c2=O)[C@H](C)N(C(=O)c2cc4cc(C5CCOC(C)(C)C5)ccc4n2[C@@]2(c4noc(=O)[nH]4)C[C@@H]2C)CC3)cc(C)c1F (single isomer, unassigned) , field AUC(0-inf): 2260

====

# reported half-life; entries follow
- Assay comment: In vivo pharmacokinetic evaluation in mice
- Assay setup: mouse, plasma; ICR mice, iv, dose 0.5 mg/kg; read-out: t½ (converted)
Please state the figure in h; there is no need to write the unit.

Use the examples below as a reference point.
Molecule: [2H]C([2H])([2H])N1C(=O)C2(CC2)c2cc(-n3ccn(-c4c5c(nn4-c4cc(C)c(F)c(C)c4)CCN(C(=O)c4cc6cc([C@H]7CCOC(C)(C)C7)ccc6n4[C@@]4(c6noc(=O)[nH]6)C[C@@H]4C)[C@H]5C)c3=O)ccc21 [Compound 2]
half-life / h: 4.1
//
Molecule: Cc1cc(-n2nc3c(c2-n2ccn(-c4ccc5c(c4)N(C)C(=O)C54CC4)c2=O)[C@H](C)N(C(=O)c2cc4cc(C5CCOC(C)(C)C5)ccc4n2[C@@]2(c4noc(=O)[nH]4)C[C@@H]2C)CC3)cc(C)c1F (single isomer, unassigned) [Compound 5]
half-life / h: 4.6
//
Molecule: Cc1cc(-n2nc3c(c2-n2ccn(-c4ccc5c(c4F)N(C)C(=O)C54CC4)c2=O)[C@H](C)N(C(=O)c2cc4cc([C@H]5CCOC(C)(C)C5)ccc4n2[C@@]2(c4noc(=O)[nH]4)C[C@@H]2C)CC3)cc(C)c1F [Compound 14]
half-life / h: 5.77
//
Molecule: Cc1cc(-n2nc3c(c2-n2ccn(-c4ccc5c(c4)C4(CC4)C(=O)N5C4CC4)c2=O)[C@H](C)N(C(=O)c2cc4cc([C@H]5CCOC(C)(C)C5)ccc4n2[C@@]2(c4noc(=O)[nH]4)C[C@@H]2C)CC3)cc(C)c1F [Compound 3]
half-life / h: 5.73

Now let's try a different one.
Record C[C@H]1c2c(nn(-c3ccc(F)c(C4CC4)c3)c2-n2ccn(-c3ccc4c(c3)N(C)C(=O)C43CC3)c2=O)CCN1C(=O)c1cc2cc([C@H]3CCOC(C)(C)C3)ccc2n1[C@@]1(c2noc(=O)[nH]2)C[C@@H]1C [Compound 18] . Reported half-life: 4.55

====

MLM Remaining (T = 60 min) values by entry
- Assay comment: In vitro stability assay in liver microsome (MLM)
- Format: in vitro ADME, mouse
- Assay setup: liver microsome 0.5 mg/mL, NADPH+MgCl2, PBS pH 7.4, 1 h
# unit: % | format: bare number

Compound: [2H]C([2H])([2H])N1C(=O)C2(CC2)c2cc(-n3ccn(-c4c5c(nn4-c4cc(C)c(F)c(C)c4)CCN(C(=O)c4cc6cc([C@H]7CCOC(C)(C)C7)ccc6n4[C@@]4(c6noc(=O)[nH]6)C[C@@H]4C)[C@H]5C)c3=O)ccc21
Unit info: %
MLM Remaining (T = 60 min): 88.89
//
Compound: Cc1cc(-c2nn3c(c2-n2ccn(-c4ccc5c(c4)N(C)C(=O)C54CC4)c2=O)[C@H](C)N(C(=O)c2cc4cc([C@H]5CCOC(C)(C)C5)ccc4n2[C@@]2(c4noc(=O)[nH]4)C[C@@H]2C)CC3)cc(C)c1F
Unit info: %
MLM Remaining (T = 60 min): 87.54
//
Compound: C[C@H]1c2c(nn(-c3ccc(F)c(C4CC4)c3)c2-n2ccn(-c3ccc4c(c3)N(C)C(=O)C43CC3)c2=O)CCN1C(=O)c1cc2cc(C3CCOC(C)(C)C3)ccc2n1C1(c2noc(=O)[nH]2)CC1 (single isomer, unassigned)
Unit info: %
MLM Remaining (T = 60 min): 77.59

Let's switch to this compound now.
The compound listed as Cc1cc(-n2nc3c(c2-n2ccn(-c4ccc5c(c4)N(C)C(=O)C54CC4)c2=O)[C@H](C)N(C(=O)c2cc4cc(C5CCOC(C)(C)C5)ccc4n2[C@@]2(c4noc(=O)[nH]4)C[C@@H]2C)CC3)cc(C)c1F (single isomer, unassigned) has a reported MLM Remaining (T = 60 min) of 94.32

====

- Assay comment: In vivo pharmacokinetic evaluation in mice
- Assay setup: mouse, po; ICR mice, ig, dose 3 mg/kg, plasma
# AUC(0-inf) per entry
The reply should be a number in ng·h/mL, with the unit left off.

Structure as smiles: Cc1cc(-n2nc3c(c2-n2ccn(-c4ccc5c(c4)C4(CC4)C(=O)N5C4CC4)c2=O)[C@H](C)N(C(=O)c2cc4cc([C@H]5CCOC(C)(C)C5)ccc4n2[C@@]2(c4noc(=O)[nH]4)C[C@@H]2C)CC3)cc(C)c1F
Unit info: ng·h/mL
AUC(0-inf): 4960

# next molecule below
Please fill in: AUC(0-inf) reported for `[2H]C([2H])([2H])N1C(=O)C2(CC2)c2cc(-n3ccn(-c4c5c(nn4-c4cc(C)c(F)c(C)c4)CCN(C(=O)c4cc6cc([C@H]7CCOC(C)(C)C7)ccc6n4[C@@]4(c6noc(=O)[nH]6)C[C@@H]4C)[C@H]5C)c3=O)ccc21` = 4880

====

- Assay comment: In vivo pharmacokinetic evaluation in mice
- Assay setup: mouse, po; ICR mice, ig, dose 3 mg/kg, plasma; read-out: AUC(0-24)
AUC(0-t) by entry:
Reply with just the number (in ng·h/mL).

Check out these entries, answers already filled in.
Compound: [2H]C([2H])([2H])N1C(=O)C2(CC2)c2cc(-n3ccn(-c4c5c(nn4-c4cc(C)c(F)c(C)c4)CCN(C(=O)c4cc6cc([C@H]7CCOC(C)(C)C7)ccc6n4[C@@]4(c6noc(=O)[nH]6)C[C@@H]4C)[C@H]5C)c3=O)ccc21
AUC(0-t), ng·h/mL: 4790

Compound: Cc1cc(-n2nc3c(c2-n2ccn(-c4ccc5c(c4)C4(CC4)C(=O)N5C4CC4)c2=O)[C@H](C)N(C(=O)c2cc4cc([C@H]5CCOC(C)(C)C5)ccc4n2[C@@]2(c4noc(=O)[nH]4)C[C@@H]2C)CC3)cc(C)c1F
AUC(0-t), ng·h/mL: 4800

Compound: Cc1cc(-n2nc3c(c2-n2ccn(-c4ccc5c(c4F)N(C)C(=O)C54CC4)c2=O)[C@H](C)N(C(=O)c2cc4cc([C@H]5CCOC(C)(C)C5)ccc4n2[C@@]2(c4noc(=O)[nH]4)C[C@@H]2C)CC3)cc(C)c1F
AUC(0-t), ng·h/mL: 4560

Compound: Cc1cc(-n2nc3c(c2-n2ccn(-c4ccc5c(c4)N(C)C(=O)C54CC4)c2=O)[C@H](C)N(C(=O)c2cc4cc(C5CCOC(C)(C)C5)ccc4n2[C@@]2(c4noc(=O)[nH]4)C[C@@H]2C)CC3)cc(C)c1F (single isomer, unassigned)
AUC(0-t), ng·h/mL: 4640

Read the next record carefully.
Noted for `C[C@H]1c2c(nn(-c3ccc(F)c(C4CC4)c3)c2-n2ccn(-c3ccc4c(c3)N(C)C(=O)C43CC3)c2=O)CCN1C(=O)c1cc2cc([C@H]3CCOC(C)(C)C3)ccc2n1[C@@]1(c2noc(=O)[nH]2)C[C@@H]1C` : its AUC(0-t) reads 5840

Sourced from patent US20260098037A1
